Record form. Attribute: Kd. Fill in for each entry.
Molecular target: UniProtKB Q72547
Test: Binding affinity to wild type HIV1 LAI reverse transcriptase
Quick note: give the figure in nM, leave out the unit.

Which measured Kd belongs to Nc1ccn([C@@H]2CS[C@H](COP(=O)(O)OP(=O)(O)OP(=O)(O)O)O2)c(=O)n1 [LAMIVUDINE TRIPHOSPHATE] , tested on UniProtKB Q72547? 370

What do you have for Cc1cn([C@H]2C[C@H](O)[C@@H](COP(=O)(O)OP(=O)(O)OP(=O)(O)O)O2)c(=O)[nH]c1=O [DEOXYTHYMIDINE_TRIPHOSPHATE] ? 2080

What do you have for Cc1cn([C@H]2C[C@H](N=[N+]=[N-])[C@@H](CO[P@](=O)(O)O[P@](=O)(O)OP(=O)(O)O)O2)c(=O)[nH]c1=O [ZIDOVUDINE TRIPHOSPHATE] ? 1990

What do you have for Nc1ccn([C@H]2C[C@H](O)[C@@H](COP(=O)(O)OP(=O)(O)OP(=O)(O)O)O2)c(=O)n1 [DEOXYCYTIDINE TRIPHOSPHATE] ? 1140
